Where do the numbers come from? From patent US11452718B2.

- test_description: Pharmacokinetics and tissue distribution (lung, plasma, heart, kidney) of co-solvent formulations, bolus intratracheal aerosol
- Type: in vivo, Sprague-Dawley rats
- condition_notes: Sprague-Dawley, rat, lung, other: intratracheal bolus aerosol (nebulizing catheter), 4 mg/kg, Group 1; 0.333 hr; about 4 mg/kg pirfenidone IT bolus aerosol; read-out: Analyte in lung tissue, Mean
assay_endpoint: concentration at 0.333 h (ng/g)

smiles_string=Cc1ccc(=O)n(-c2ccccc2)c1 quantitative_result=4150

====

- test_description: Pharmacokinetics and tissue distribution (lung, plasma, heart, kidney) of co-solvent formulations, bolus intratracheal aerosol
- Assay type: in vivo, Sprague-Dawley rats
- condition_notes: Sprague-Dawley, rat, lung, other: intratracheal bolus aerosol (nebulizing catheter), 4 mg/kg, Group 3; 0.0667 hr; about 4 mg/kg pirfenidone IT bolus aerosol; read-out: Analyte in lung tissue, Mean
- Procedure: Selected formulations were prepared for pharmacokinetic analysis following aerosol delivery to rat lung. […] Formulations prepared for this study are outlined in Table 9. […] The sample was agitated until completely dissolved. […] Filtered samples were analyzed by HPLC.
assay_endpoint: concentration at 4 min (ng/g)

smiles_string=Cc1ccc(=O)n(-c2ccccc2)c1 quantitative_result=17300

====

- test_description: Pharmacokinetics and tissue distribution (lung, plasma, heart, kidney) of co-solvent formulations, bolus intratracheal aerosol
- Assay type: in vivo, Sprague-Dawley rats
- condition_notes: Sprague-Dawley, rat, lung, other: intratracheal bolus aerosol (nebulizing catheter), 4 mg/kg, Group 3; 0.167 hr; about 4 mg/kg pirfenidone IT bolus aerosol; read-out: Analyte in lung tissue, Mean
assay_endpoint: concentration at 0.167 h (ng/g)

smiles_string=Cc1ccc(=O)n(-c2ccccc2)c1 assay_endpoint="concentration at 0.167 h" quantitative_result=6160

====

- test_description: Pharmacokinetics and tissue distribution (lung, plasma, heart, kidney) of co-solvent formulations, bolus intratracheal aerosol
- Assay type: in vivo, Sprague-Dawley rats
- condition_notes: Sprague-Dawley, rat, lung, other: intratracheal bolus aerosol (nebulizing catheter), 4 mg/kg, Group 2; 0.167 hr; about 4 mg/kg pirfenidone IT bolus aerosol; read-out: Analyte in lung tissue, Mean
assay_endpoint: concentration at 0.167 h (ng/g)

smiles_string=Cc1ccc(=O)n(-c2ccccc2)c1 unit_annotation=ng/g quantitative_result=5710

====

- test_description: Extended-duration intratracheal and oral pharmacokinetic study
- Type: in vivo, Wistar rats
- condition_notes: intratracheal aerosol 5 mg/kg, extended-duration (2 minutes)
assay_endpoint: Lung Tissue AUC(0-2 hr) (µg·h/g)

smiles_string=Cc1ccc(=O)n(-c2ccccc2)c1 assay_endpoint="Lung Tissue AUC(0-2 hr)" unit_annotation=µg·h/g quantitative_result=6.6

====

- test_description: Pharmacokinetics and tissue distribution (lung, plasma, heart, kidney) of co-solvent formulations, bolus intratracheal aerosol
- Type: in vivo, Sprague-Dawley rats
- condition_notes: Sprague-Dawley, rat, lung, other: intratracheal bolus aerosol (nebulizing catheter), 4 mg/kg, Group 5; 0.0667 hr; about 4 mg/kg pirfenidone IT bolus aerosol; read-out: Analyte in lung tissue, Mean
assay_endpoint: concentration at 4 min (ng/g)

smiles_string=Cc1ccc(=O)n(-c2ccccc2)c1 assay_endpoint="concentration at 4 min" quantitative_result=10700

====

- test_description: Pharmacokinetics and tissue distribution (lung, plasma, heart, kidney) of co-solvent formulations, bolus intratracheal aerosol
- Format: in vivo, Sprague-Dawley rats
- condition_notes: Sprague-Dawley, rat, lung, other: intratracheal bolus aerosol (nebulizing catheter), 4 mg/kg, Group 6; 0.1 hr; about 4 mg/kg pirfenidone IT bolus aerosol; read-out: Analyte in lung tissue, Mean
assay_endpoint: concentration at 0.1 h

smiles_string=Cc1ccc(=O)n(-c2ccccc2)c1 assay_endpoint="concentration at 0.1 h" result="6830 ng/g"
